target: UniProt Q9H1R3; test: radiometric filter-binding kinase assay, Kinase HotSpot; settings: compound 0.5 µM; ATP 10 µM
Sequence (Q9H1R3 whole entry, looked up): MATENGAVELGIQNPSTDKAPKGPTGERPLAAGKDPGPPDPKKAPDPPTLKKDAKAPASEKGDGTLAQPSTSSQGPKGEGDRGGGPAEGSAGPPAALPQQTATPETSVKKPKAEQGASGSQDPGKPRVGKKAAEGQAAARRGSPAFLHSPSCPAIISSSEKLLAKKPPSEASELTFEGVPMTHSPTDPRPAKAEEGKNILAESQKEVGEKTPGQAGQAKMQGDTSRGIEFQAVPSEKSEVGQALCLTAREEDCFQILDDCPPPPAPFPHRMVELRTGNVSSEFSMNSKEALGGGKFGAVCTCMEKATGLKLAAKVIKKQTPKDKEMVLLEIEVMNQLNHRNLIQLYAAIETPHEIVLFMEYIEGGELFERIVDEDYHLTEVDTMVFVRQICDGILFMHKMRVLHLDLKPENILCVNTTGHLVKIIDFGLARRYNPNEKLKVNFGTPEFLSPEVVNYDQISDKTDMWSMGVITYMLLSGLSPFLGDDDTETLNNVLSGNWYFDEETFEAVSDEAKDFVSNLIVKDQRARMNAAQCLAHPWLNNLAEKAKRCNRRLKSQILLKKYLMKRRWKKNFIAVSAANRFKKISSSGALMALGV
ENDPOINT NAME: residual activity
The number alone won't do; follow it with the unit.

Some molecules with known residual activity results, for comparison:
# molecule O=C1NC(=O)c2c1c1c3ccccc3n3c1c1c2c2ccccc2n1C1CCC3O1 ; its residual activity = 7.76%

# molecule CCN(CC)C(=O)c1ccc(Nc2nc(OCC3CCCCC3)c3nc[nH]c3n2)cc1 ; its residual activity = 94.7%

# molecule CC[n+]1c(/C=C/N(C)c2ccccc2)n(-c2ccccc2)c2ccc(-c3nc4ccccc4s3)cc21 ; its residual activity = 95.8%

Next:
# molecule CNC(=O)c1cc(Oc2ccc(NC(=O)Nc3ccc(Cl)c(C(F)(F)F)c3)cc2)ccn1 ; its residual activity = 96.1%

# molecule CCN(CC)CCNC(=O)c1c(C)[nH]c(/C=C2\C(=O)Nc3ccc(F)cc32)c1C ; its residual activity = 7.74%

# molecule Nc1cccc(-c2cc3c(Oc4cccc(O)c4)ncnc3[nH]2)c1 ; its residual activity = 29.9%

# molecule Cc1ccc(S(=O)(=O)/C=C/C#N)cc1 ; its residual activity = 105%

# molecule CCCC(=O)Oc1ccc2[nH]c(C(=O)c3cc4ccccc4[nH]3)cc2c1 ; its residual activity = 98.2%
